Reported MIC, E. coli MG1655.

Take a look at these entries with their results.
>  <molecule-smiles>
N#Cc1ccc2c(ccc(=O)n2CCN[C@@H]2CC[C@@H]3[C@@H](C2)OC(=O)N3c2ccc3c(n2)NC(=O)CO3)c1

>  <MIC>
< 1 µg/mL

$$$$
>  <molecule-smiles>
COc1ccc2ncc(=O)n(CCN[C@@H]3CC[C@@H]4[C@@H](C3)OC(=O)N4c3ccc4c(n3)NC(=O)CO4)c2c1

>  <MIC>
< 1 µg/mL

$$$$

From here, focus on the item given below.
## Input For O=C1COc2ccc(N3C(=O)O[C@H]4C[C@@H](NCCn5c(=O)cnc6ccc(F)cc65)CC[C@@H]43)nc2N1 , what is its reported MIC?
## Output < 1 µg/mL

* * *

Catalogue of MIC values
# System: Enterobacter cloacae NCTC 13406
# assay-overview: MIC, broth microdilution (CLSI) versus planktonic bacteria
# Format: cell-based
# condition-parameters: NCTC13406; Enterobacter cloacae NCTC 13406; 16-20 h; mode of three independent experiments; read-out: MIC, Ecl NCTC 13406

Take a look at these entries with their results.
>  <compound>
COc1cnc2ccc(=O)n(CCN[C@@H]3CC[C@@H]4[C@@H](C3)OC(=O)N4c3ncc4c(n3)NC(=O)CO4)c2c1 [Compound 41]

>  <result>
1 to 10 µg/mL

$$$$
>  <compound>
N#Cc1ccc2ccc(=O)n(CCCN[C@@H]3CC[C@@H]4[C@@H](C3)OC(=O)N4c3ccc4c(n3)NC(=O)CO4)c2c1 [Compound 74]

>  <result>
< 1 µg/mL

$$$$
>  <compound>
N#Cc1cccc(-c2cccc(CN[C@@H]3CC[C@@H]4[C@@H](C3)OC(=O)N4c3ccc4c(n3)NC(=O)CO4)c2O)n1 [Compound 40]

>  <result>
< 1 µg/mL

$$$$
>  <compound>
N#Cc1ccc2c(ccc(=O)n2CCN[C@@H]2CC[C@@H]3[C@@H](C2)OC(=O)N3c2ccc3c(n2)NC(=O)CO3)c1 [Compound 106]

>  <result>
1 to 10 µg/mL

$$$$
>  <compound>
COc1ccc2ncc(=O)n(CCN[C@H]3CC[C@H]4[C@@H](C3)OC(=O)N4c3ccc4c(n3)NC(=O)CO4)c2n1 [Compound 35]

>  <result>
< 1 µg/mL

$$$$
>  <compound>
N#Cc1ccc2ncc(=O)n(CCN[C@H]3CC[C@H]4[C@H](C3)OC(=O)N4c3ccc4c(n3)NC(=O)CO4)c2c1 [Compound 64]

>  <result>
< 1 µg/mL

$$$$
>  <compound>
O=C1COc2ccc(N3C(=O)O[C@@H]4C[C@@H](NCCn5c(=O)ccc6ncc(F)cc65)CC[C@@H]43)nc2N1 [Compound 28]

>  <result>
1 to 10 µg/mL

$$$$
>  <compound>
COc1ncc2ccc(=O)n(CCN[C@H]3CC[C@H]4[C@H](C3)OC(=O)N4c3ccc4c(n3)NC(=O)CO4)c2n1 [Compound 52]

>  <result>
1 to 10 µg/mL

$$$$

## Input Form field - read-out: MIC; system: Enterobacter cloacae NCTC 13406; submitted item: CSc1ncc2ccc(=O)n(CCN[C@H]3CC[C@H]4[C@@H](C3)OC(=O)N4c3ccc4c(n3)NC(=O)CO4)c2n1 [Compound 53]
## Output 10 to 100 µg/mL

## Input Form field - read-out: MIC; system: Enterobacter cloacae NCTC 13406; submitted item: N#Cc1ccc2ccc(=O)n(CCN[C@@H]3CC[C@@H]4[C@@H](C3)OC(=O)N4c3ccc4c(n3)NC(=O)CO4)c2c1 [Compound 59]
## Output < 1 µg/mL

## Input Form field - read-out: MIC; system: Enterobacter cloacae NCTC 13406; submitted item: COc1ccc2c3conc3c(=O)n(CCN[C@H]3CC[C@H]4[C@@H](C3)OC(=O)N4c3ccc4c(n3)NC(=O)CO4)c2c1 [Compound 11]
## Output 1 to 10 µg/mL

* * *

# Tested on: E. coli NCTC 13476
Catalogue of MIC values

Take a look at these entries with their results.
>  <molecule-smiles>
COc1ccc2ccc(=O)n(CCN[C@@H]3CC[C@@H]4[C@@H](C3)OC(=O)N4c3ccc4c(n3)NC(=O)CO4)c2n1

>  <result>
< 1 µg/mL

$$$$
>  <molecule-smiles>
N#Cc1ccc2ncc(=O)n(CCN[C@@H]3CC[C@@H]4[C@@H](C3)OC(=O)N4c3ccc4c(n3)NC(=O)CO4)c2c1

>  <result>
< 1 µg/mL

$$$$

## Input Form field - read-out: MIC; system: E. coli NCTC 13476; submitted item: COc1ccc2ncc(=O)n(CCN[C@H]3CC[C@H]4[C@@H](C3)OC(=O)N4c3ccc4c(n3)NC(=O)CO4)c2n1
## Output < 1 µg/mL

* * *

# System: Haemophilus influenzae ATCC 49247
# assay-overview: MIC, broth microdilution (CLSI) versus planktonic bacteria
# Type: cell-based
# condition-parameters: ATCC49247; Haemophilus influenzae ATCC 49247; 16-20 h; mode of three independent experiments; read-out: MIC, Hi ATCC 49247
quantity-name: MIC

Take a look at these entries with their results.
>  <molecule>
O=C1COc2cnc(N3C(=O)O[C@H]4C[C@@H](NCCn5c(=O)cnc6cc(F)c(F)cc65)CC[C@@H]43)nc2N1

>  <MIC>
1 to 10 µg/mL

$$$$
>  <molecule>
O=C1COc2cnc(N3C(=O)O[C@@H]4C[C@@H](NCCn5c(=O)cnc6cc(F)c(F)cc65)CC[C@@H]43)nc2N1

>  <MIC>
1 to 10 µg/mL

$$$$

## Input For N#Cc1cnc2ccc(=O)n(CCN[C@H]3CC[C@H]4[C@H](C3)OC(=O)N4c3ccc4c(n3)NC(=O)CO4)c2c1 , what is its reported MIC?
## Output < 1 µg/mL

## Input For O=C1COc2ccc(N3C(=O)O[C@@H]4C[C@@H](NCCn5c(=O)cnc6cc(F)c(F)cc65)CC[C@@H]43)nc2N1 , what is its reported MIC?
## Output < 1 µg/mL

## Input For COc1ccc2ncc(=O)n(CCNC3CCC4C(C3)OC(=O)N4c3ccc4c(n3)NC(=O)CO4)c2n1 (stereo in doubt) , what is its reported MIC?
## Output < 1 µg/mL

## Input For CSc1ncc2ccc(=O)n(CCN[C@H]3CC[C@H]4[C@@H](C3)OC(=O)N4c3ccc4c(n3)NC(=O)CO4)c2n1 , what is its reported MIC?
## Output 1 to 10 µg/mL

## Input For COc1ccc2ccc(=O)n(CCCN[C@@H]3CC[C@@H]4[C@@H](C3)OC(=O)N4c3ncc4c(n3)NC(=O)CO4)c2n1 , what is its reported MIC?
## Output < 1 µg/mL

## Input For N#Cc1ccc2c(ccc(=O)n2CCN[C@H]2CC[C@H]3[C@H](C2)OC(=O)N3c2ccc3c(n2)NC(=O)CO3)c1 , what is its reported MIC?
## Output 1 to 10 µg/mL

## Input For NCCCOc1ccc2ccc(=O)n(CCN[C@H]3CC[C@H]4[C@@H](C3)OC(=O)N4c3ccc4c(n3)NC(=O)CO4)c2n1 , what is its reported MIC?
## Output > 100 µg/mL

## Input For COc1cnc2ccc(=O)n(CCN[C@H]3CC[C@H]4[C@H](C3)OC(=O)N4c3ccc4c(n3)NC(=O)CO4)c2n1 , what is its reported MIC?
## Output < 1 µg/mL

## Input For N#Cc1cnc2ccc(=O)n(CCN[C@H]3CC[C@H]4[C@H](C3)OC(=O)N4c3ccc4c(n3)NC(=O)CS4)c2c1 , what is its reported MIC?
## Output < 1 µg/mL

## Input For N#Cc1cnc2ccc(=O)n(CCN[C@@H]3CC[C@@H]4[C@@H](C3)OC(=O)N4c3ccc4c(n3)NC(=O)CO4)c2c1 , what is its reported MIC?
## Output < 1 µg/mL

## Input For N#Cc1ccc2ncc(=O)n(CCN[C@H]3CC[C@H]4[C@@H](C3)OC(=O)N4c3ccc4c(n3)NC(=O)CO4)c2c1 , what is its reported MIC?
## Output < 1 µg/mL

* * *

Reported MIC, E. coli NCTC 13476.

## Input For O=C1COc2ccc(N3C(=O)O[C@H]4C[C@@H](NCCCn5c(=O)cnc6cc(F)c(F)cc65)CC[C@@H]43)nc2N1 , what is its reported MIC?
## Output < 1 mg/L

* * *

# Test system: strains of Prevotella melaninogenica
# assay-overview: MIC against anaerobes, agar dilution (CLSI), clinical isolates
# Type: cell-based
# condition-parameters: Prevotella melaninogenica strain 5
quantity-name: MIC

>  <compound>
CN[C@H](CC(C)C)C(=O)N[C@H]1C(=O)N[C@@H](CC(N)=O)C(=O)N[C@H]2C(=O)N[C@H]3C(=O)N[C@H](C(=O)N[C@H](C(=O)O)c4cc(O)cc(O)c4-c4cc3ccc4O)[C@H](O)c3ccc(c(Cl)c3)Oc3cc2cc(c3O[C@@H]2O[C@H](CO)[C@@H](O)[C@H](O)[C@H]2O[C@H]2C[C@](C)(N)[C@H](O)[C@H](C)O2)Oc2ccc(cc2Cl)[C@H]1O [VAN, vancomycin, reference compound]

>  <result>
16 to 64 µg/mL

$$$$
>  <compound>
Cc1ccc2ncc(=O)n(CCN[C@H]3CC[C@H]4[C@@H](C3)OC(=O)N4c3ccc4c(n3)NC(=O)CO4)c2c1 [Compound 27]

>  <result>
< 1 µg/mL

$$$$
>  <compound>
Cc1ncc([N+](=O)[O-])n1CCO [MTZ, metronidazole, reference compound]

>  <result>
< 1 µg/mL

$$$$

From here, focus on the item given below.
## Input For COc1ccc2ncc(=O)n(CCN[C@@H]3CC[C@@H]4[C@@H](C3)OC(=O)N4c3ccc4c(n3)NC(=O)CO4)c2c1 [Compound 21] , what is its reported MIC?
## Output < 1 µg/mL
